Origin of values: patent US4278687A

Tested on: enzyme from pig adipose tissue (synthesis of triglycerides)
protocol_description: Inhibition of triglyceride synthesis by enzyme preparation from pig adipose tissue (14C-glycerol-3-phosphate incorporation)
Type: biochemical
condition_info: test compound 1000 micrograms per milliliter, 5% DMSO, 8 minutes at 37° C; compared to controls without test compound; average of two animals
# Percent Inhibition per record follows
Please give only the number in your answer, with no unit.

Here are 2 molecules together with their reported answers.
Cl.OC(CNCCC(O)(c1ccccc1)c1ccsc1)c1ccc(Cl)cc1 (centres unmarked) : 94
CC(NCC=C(c1ccsc1)c1ccsc1)C(O)c1ccccc1.Cl (centres unmarked) : 97

# Cl.OC(CNCC=C(c1ccsc1)c1ccsc1)c1cccc(C(F)(F)F)c1 (centres unmarked) with enzyme from pig adipose tissue (synthesis of triglycerides): Percent Inhibition is 101

The molecule CC(C)c1ccc(C(=CCNC(C)C(O)c2ccccc2)c2ccsc2)cc1.Cl (centres unmarked) , tested on enzyme from pig adipose tissue (synthesis of triglycerides), showed Percent Inhibition of 96

Record CC(NCCC(c1ccccc1)c1ccsc1)C(O)c1ccccc1.Cl (centres unmarked) ; system enzyme from pig adipose tissue (synthesis of triglycerides); Percent Inhibition = 94
